All figures here come from patent US20240270821A1.

Task for the reader: assign each of the following binders its reported Relative cAMP EC50.
- TEST_TARGET: human glucagon receptor (human) (UniProt P47871)
- Sequence (P47871 26-477): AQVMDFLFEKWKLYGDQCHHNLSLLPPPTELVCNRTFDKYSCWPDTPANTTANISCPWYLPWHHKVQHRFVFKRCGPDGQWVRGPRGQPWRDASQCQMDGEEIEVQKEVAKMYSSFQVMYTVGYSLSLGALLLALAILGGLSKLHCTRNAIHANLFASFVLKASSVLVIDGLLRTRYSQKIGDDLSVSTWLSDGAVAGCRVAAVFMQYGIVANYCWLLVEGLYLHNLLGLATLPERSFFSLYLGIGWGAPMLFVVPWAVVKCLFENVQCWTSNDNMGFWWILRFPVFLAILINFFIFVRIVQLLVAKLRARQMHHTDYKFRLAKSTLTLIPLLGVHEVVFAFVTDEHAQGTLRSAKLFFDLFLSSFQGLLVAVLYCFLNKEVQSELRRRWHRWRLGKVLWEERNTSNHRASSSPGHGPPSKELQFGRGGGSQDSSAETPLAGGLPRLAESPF
- ASSAY_INFO: cell-based or functional assay
Starred links: 1 amine or outer side, 2 acyl side, 3 side chain; linkers in the order of their positions; H or OH if unused. Non-standard residues stand in square brackets, D forms with d. Groups on a side chain read outwards from the residue. No end group written: not given here. *: point of attachment. C20 diacid = O=C(O)CCCCCCCCCCCCCCCCCCC(=O)*; γGlu = O=C(O)[C@H](CCC(=O)[*:2])N[*:1]; αMeL = CC(C)C[C@](C)(N)C(=O)O; AEEA = NCCOCCOCC(=O)O; Aib = CC(C)(N)C(=O)O
Numbers only here, please. The scale is nM.

// sample Y[Aib]QGTFTSDYSI[αMeL]LDKQAAK([AEEA-AEEA-γGlu-C20 diacid])QFVNWLLA[Aib]GPSSGEPPPSEG-NH2 [Example 325] , its Relative cAMP EC50 was 2.43

// sample YXQATXTSDXXIXLDXKAQXEFIEXLIEGGPSSGAPPPSGS (synthetic construct; SITE 2: note = 2-Aminoisobutyric Acid; SITE 4: note = D-amino acid; SITE 6: note = alpha-methyl-2-fluoro-L-phenylalanine; SITE 10: note = 3-(4-Pyridyl)-L-alanine; SITE 11: note = alpha-methyl-L-serine; SITE 13: note = alpha-methyl-leucine; SITE 16: note = L-ornithine; SITE 17: n) [Example 1203] , its Relative cAMP EC50 was 2.58

// sample YXQGTFTSDXXQXLDXKAQXQFIQXLIAXGPSSGAPPPSGGGE (not fully specified; Lys acylated γGlu-C18 diacid; non-natural residues; C-amide; synthetic construct; SITE 2: note = 2-Aminoisobutyric Acid; SITE 10: note = 3-(4-Pyridyl)-L-alanine; SITE 11: note = alpha-methyl-L-serine; SITE 13: note = alpha-methyl-leucine; SITE 16: note = L-ornithine; SITE 17: note = Lysine is chemically modified through conjugation of the epsilon-amino group) [Example 1132] , its Relative cAMP EC50 was 2.11

// sample YXQGTFTSDXSQXLDXKAQXAFIEYLIAXGPSSGEPPPSGSEE (non-natural residues, acylated Lys ((γGlu)2-C18 diacid), C-terminal amide; synthetic construct; SITE 2: note = 2-Aminoisobutyric Acid; SITE 10: note = 3-(4-Pyridyl)-L-alanine; SITE 13: note = alpha-methyl-leucine; SITE 16: note = L-ornithine; SITE 17: note = Lysine is chemically modified through conjugation of the epsilon-amino group of the Lysine side chain with (gamma-Gl)) [Example 1092] , its Relative cAMP EC50 was 3.45

// sample YXQGTFTSDFSXXLDKKAQXAFIEYLLEAGHSSGAPPPSGE (Aib, Orn, αMeL, D-Ala; lysine acylated C18 diacid; amide; synthetic construct; SITE 2: note = 2-Aminoisobutyric Acid; SITE 12: note = L-ornithine; SITE 13: note = alpha-methyl-leucine; SITE 17: note = Lysine is chemically modified through conjugation of the epsilon-amino group of the Lysine side chain with (2-[2-(2-Amino-ethoxy)-ethoxy]-acetyl)-(gamma-Glu)) [Example 207] , its Relative cAMP EC50 was 4.24

// sample YXQGTXTSDXSIXLDKKAQXAFIEYLEEGGPSSGAPPPEGTGE (non-natural residues, (γGlu)2-diacid acylated Lys, C-terminal amide; synthetic construct; SITE 2: note = 2-Aminoisobutyric Acid; SITE 6: note = alpha-methyl-2-fluoro-L-phenylalanine; SITE 10: note = 3-(4-Pyridyl)-L-alanine; SITE 13: note = alpha-methyl-leucine; SITE 17: note = Lysine is chemically modified through conjugation of the epsilon-amino group of the Lysine) [Example 626] , its Relative cAMP EC50 was 8.72
